Method: In vivo pharmacokinetics study in mice
Set-up: species or system C57BL/6 mice
Experimental setup: male, C57BL/6, plasma, iv; mouse, i.v. 1 mg/kg
Readout kind: half-life (h)
Write it as a number; the unit h goes unstated.

query: State the recorded half-life for this entry: Cc1c(-c2nc3cc(CN4CC[C@@H](C(=O)O)C4)cc(C#N)c3o2)cccc1-c1cccc2c1CCN2c1nc(C(F)F)nc2cc(CN3CC[C@@H](O)C3)cnc12
result: 12.5

###

Method: In vivo pharmacokinetics study in mice
Parameters: species or system C57BL/6 mice
Experimental setup: male, C57BL/6, plasma, iv; mouse, i.v. 1 mg/kg
Readout kind: AUC(0-inf) (µM·h)
Write it as a number; the unit µM·h goes unstated.

query: State the recorded AUC(0-inf) for this entry: Cc1c(-c2nc3cc(CN4CC[C@@H](C(=O)O)C4)cc(C#N)c3o2)cccc1-c1cccc2c1CCN2c1nc(C(F)F)nc2cc(CN3CC[C@@H](O)C3)cnc12
result: 2.1

###

Assayed target: PD-1/PD-L1 (Homo sapiens (Human))
Sequence (Q9NZQ7 19-290): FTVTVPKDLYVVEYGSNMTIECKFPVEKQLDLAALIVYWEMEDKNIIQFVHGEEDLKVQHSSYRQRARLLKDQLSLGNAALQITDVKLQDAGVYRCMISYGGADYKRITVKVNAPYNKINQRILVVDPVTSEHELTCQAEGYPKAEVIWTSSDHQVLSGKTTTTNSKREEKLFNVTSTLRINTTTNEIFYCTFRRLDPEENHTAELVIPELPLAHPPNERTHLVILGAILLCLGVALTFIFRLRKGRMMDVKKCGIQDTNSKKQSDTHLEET
Method: NFAT assay: TCR Activitor/PD-L1 CHO cells co-cultured with PD-1/NFAT Reporter-Jurkat cells, Bright-Glo readout
Assay type: cell-based
Experimental setup: PD-L1 CHO / PD-1 NFAT Reporter-Jurkat co-culture, 5 hours
Property: IC50; scope: individual compounds
Write it as a number; the unit nM goes unstated.

Compound	Readout kind	Endpoint result
COc1nc(-c2cccc(-c3cccc4c3CCN4c3nc(C(F)F)nc4cc(CN5CC[C@@H](O)C5)cnc34)c2Cl)ccc1CN1CCC(C)(C(=O)O)C1 (stereo partly drawn) [Compound 16]	IC50	9.2
COc1nc(-c2cccc(-c3cccc4c3CCN4c3nc(C(F)F)nc4cc(CN5CC[C@@H](O)C5)cnc34)c2Cl)cnc1CNC[C@@H]1CCC(=O)N1 [Compound 4]	IC50	4.5

Alright, here's another compound for you.
query: State the recorded IC50 for this entry: N#CCOc1nc(-c2cccc(-c3cccc4c3CCN4c3nc(C(F)F)nc4cc(CN5CC[C@@H](O)C5)cnc34)c2Cl)ccc1CN1CC[C@@H](C(=O)O)C1 [Compound 17]
result: 7.5

###

Method: In vivo pharmacokinetics study in mice
Design: species or system C57BL/6 mice
Experimental setup: male, C57BL/6, plasma, po; mouse, p.o. 30 mg/kg
Readout kind: Cmax (nM)
Write it as a number; the unit nM goes unstated.

                           smiles_structure  endpoint_result
0  COc1nc(-c2cccc(-c3cccc4c3CCN4c3nccc4cc(CN5CC[C@@H](O)C5)cnc34)c2Cl)ccc1CNC[C@@H]1CCC(=O)N1             1460

query: State the recorded Cmax for this entry: COc1nc(-c2cccc(-c3cccc4c3CCN4c3nccc4cc(CN5CC[C@@H](O)C5)cnc34)c2Cl)cnc1CNC[C@@H]1CCC(=O)N1
result: 1960

###

Method: In vivo pharmacokinetics study in mice
Parameters: species or system C57BL/6 mice
Experimental setup: male, C57BL/6, plasma, iv; mouse, i.v. 1 mg/kg
Readout kind: clearance (mL/min/kg)
Write it as a number; the unit mL/min/kg goes unstated.

query: State the recorded clearance for this entry: Cc1c(-c2nc3cc(CN4CC[C@@H](C(=O)O)C4)cc(C#N)c3o2)cccc1-c1cccc2c1CCN2c1nc(C(F)F)nc2cc(CN3CC[C@@H](O)C3)cnc12 [Compound 27]
result: 10.6
